System: MCF7
Assay: Cytotoxicity against human MCF7 cells after 48 hrs by MTT assay
Format: ADME, cell-based
Settings: MCF7, 48 h
// IC50 lookup, one value per entry
Field note: include the unit after the figure.

Query: Entry COc1cc2c(cc1OC)C(=O)/C(=C/c1ccc(N3CC[N+](C)(Cc4ccccc4)CC3)cc1)C2 has what IC50?
Reply: 1200 nM

Further cases:
Query: Recorded IC50 for COc1cc2c(cc1OC)C(=O)/C(=C/c1ccc(N3CC[N+](C)(Cc4cccc(Cl)c4)CC3)cc1)C2.[Br-] , please?
Reply: 1520 nM

----------
These records show pIC50 for Acetylcholinesterase (Homo sapiens).
Lab note — pIC50 values are minus log10 of concentrations in M.

// worked examples, pIC50 included
Query: Quick check: pIC50 of COc1cc2c(cc1OC)C(=O)/C(=C/c1ccc(N3CC[N+](C)(Cc4cccc(Cl)c4)CC3)cc1)C2.[Br-] ?
Reply: 6.49

Query: Same read-out for COc1cc2c(cc1OC)C(=O)/C(=C/c1ccc(N3CC[N+](C)(Cc4ccccc4Br)CC3)cc1)C2 ?
Reply: 6.27

Query: Another compound to look at: COc1cc2c(cc1OC)C(=O)/C(=C/c1ccc(N3CC[N+](C)(Cc4ccccc4)CC3)cc1)C2
Reply: 6.43

Query: // same read-out, input: C=CC[N+]1(C)CCN(c2ccc(/C=C3\Cc4cc(OC)c(OC)cc4C3=O)cc2)CC1
Reply: 6.37

Others:
Query: Given the compound CCC[N+]1(C)CCN(c2ccc(/C=C3\Cc4cc(OC)c(OC)cc4C3=O)cc2)CC1 , what is its reported pIC50?
Reply: 5.67
